# Assay summary: self-splicing fitness, log relative to wild type (ln ratio); higher = more splicing; Tetrahymena group I intron in knt gene, E. coli kanamycin selection, DiMSum; sequences stand for … in CUCUCU…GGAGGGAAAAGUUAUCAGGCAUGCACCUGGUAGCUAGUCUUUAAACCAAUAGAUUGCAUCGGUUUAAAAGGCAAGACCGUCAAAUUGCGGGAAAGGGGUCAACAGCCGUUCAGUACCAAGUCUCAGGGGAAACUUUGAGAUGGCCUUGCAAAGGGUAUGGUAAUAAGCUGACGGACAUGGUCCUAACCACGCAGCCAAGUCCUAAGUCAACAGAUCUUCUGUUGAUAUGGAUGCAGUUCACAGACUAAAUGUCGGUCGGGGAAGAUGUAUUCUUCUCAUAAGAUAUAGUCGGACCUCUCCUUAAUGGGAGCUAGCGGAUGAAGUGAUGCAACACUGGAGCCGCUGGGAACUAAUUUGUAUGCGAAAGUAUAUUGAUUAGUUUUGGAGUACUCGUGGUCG;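 note: selection with 25 µg/mL kanamycin versus none on LB agar overnight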
# Stated conditions: 30 °C
So basically: self-splicing fitness (ln) at -1 or higher? That is true (1). Lower than -1? That is false (0).

stdin: Check the entry CCUAAGCAAUAUUACGAGCU : does self-splicing fitness (ln) equal or exceed -1?
stdout: false (0)

stdin: Check the entry UCGAAGCAAUAUUACGUCCG : does self-splicing fitness (ln) equal or exceed -1?
stdout: true (1)

stdin: Check the entry ACAUAGCAAUAUUACGAAUC : does self-splicing fitness (ln) equal or exceed -1?
stdout: false (0)

stdin: Check the entry UGUUAGCAAUAUUACGCCUA : does self-splicing fitness (ln) equal or exceed -1?
stdout: false (0)

stdin: Check the entry AACGAGCAAUAUUACGUCUU : does self-splicing fitness (ln) equal or exceed -1?
stdout: false (0)

stdin: Check the entry GUCUAGCAAUAUUACGUUGG : does self-splicing fitness (ln) equal or exceed -1?
stdout: false (0)

stdin: Check the entry GUUCAGCAAUAUUACGAGAC : does self-splicing fitness (ln) equal or exceed -1?
stdout: false (0)

stdin: Check the entry AGUCAGCAAUAUUACGGACG : does self-splicing fitness (ln) equal or exceed -1?
stdout: true (1)

stdin: Check the entry AUUUAGCAAUAUUACGUCCA : does self-splicing fitness (ln) equal or exceed -1?
stdout: true (1)

stdin: Check the entry UCGUAGCAAUAUUACGUGUC : does self-splicing fitness (ln) equal or exceed -1?
stdout: false (0)
